target: Bacterial 70S ribosome; experiment: Inhibition of ribosome-mediated translation in Cell-free Escherichia coli protein synthesis system using pCmGFP as plasmid incubated at 30 degreeC measured every 20 mins by invitro coupled transcription-translation system based fluorescence analysis
pIC50: −log10 of the molar value.
RESULT TYPE: pIC50

Here is how some molecules turned out for pIC50.
C[C@H](NC(=O)[C@@H](NC(=O)[C@@H](N)CCCCN)[C@@H](O)[C@@H](C)N)C(=O)NCC(=O)N[C@H](CCCN)C(=O)N1CCC[C@H]1C(=O)N[C@@H](Cc1c[nH]cn1)C(=O)N[C@@H](CCCCN)C(=O)N/C(=C\CCNC(=N)N)C(=O)O | 5.00
CC(=O)NCCC[C@@H](NC(=O)CNC(=O)[C@H](C)NC(=O)[C@@H](NC(=O)[C@@H](N)CCCCN)[C@@H](O)CN)C(=O)N1CCC[C@H]1C(=O)N[C@@H](Cc1c[nH]cn1)C(=O)N[C@@H](CCCCN)C(=O)N/C(=C\CCNC(=N)N)C(=O)O | < 4.40

As a next step, examine the molecule that follows.
Reported pIC50 for CCCC[C@@H](NC(=O)CNC(=O)[C@H](C)NC(=O)[C@@H](NC(=O)[C@@H](N)CCCCN)[C@@H](O)CN)C(=O)N1CCC[C@H]1C(=O)N[C@@H](Cc1c[nH]cn1)C(=O)N[C@@H](CCCCN)C(=O)N/C(=C\CCNC(=N)N)C(=O)O : what is it?
< 4.40

* * *

Overview of reported log10 IC50 across a group of molecules:
molecular target: Bacterial 70S ribosome; assay: Inhibition of ribosome-mediated translation in Cell-free Escherichia coli protein synthesis system using pCmGFP as plasmid incubated at 30 degreeC measured every 20 mins by invitro coupled transcription-translation system based fluorescence analysis
Hey, these are logged values: log10 of IC50, µM being the unit before logging.

Example results:
C[C@H](NC(=O)[C@@H](NC(=O)[C@@H](N)CCCCN)[C@@H](O)CCN)C(=O)NCC(=O)N[C@H](CCCN)C(=O)N1CCC[C@H]1C(=O)N[C@@H](Cc1c[nH]cn1)C(=O)N[C@@H](CCCCN)C(=O)N/C(=C\CCNC(=N)N)C(=O)O | 1.16
C[C@H](NC(=O)[C@@H](NC(=O)[C@@H](N)CCCCN)[C@@H](O)CN)C(=O)NCC(=O)N[C@H](CCN)C(=O)N1CCC[C@H]1C(=O)N[C@@H](Cc1c[nH]cn1)C(=O)N[C@@H](CCCCN)C(=O)N/C(=C\CCNC(=N)N)C(=O)O | 1.56
CNC[C@H](O)[C@H](NC(=O)[C@@H](N)CCCCN)C(=O)N[C@@H](C)C(=O)NCC(=O)N[C@H](CCCN)C(=O)N1CCC[C@H]1C(=O)N[C@@H](Cc1c[nH]cn1)C(=O)N[C@@H](CCCCN)C(=O)N/C(=C\CCNC(=N)N)C(=O)O | 0.51
C[C@H](NC(=O)[C@@H](NC(=O)[C@@H](N)CCCCN)[C@@H](O)CN)C(=O)NCC(=O)N[C@](C)(CCCN)C(=O)N1CCC[C@H]1C(=O)N[C@@H](Cc1c[nH]cn1)C(=O)N[C@@H](CCCCN)C(=O)N/C(=C\CCNC(=N)N)C(=O)O | 1.26

// lookup log10 IC50 | system=Bacterial 70S ribosome | key= C[C@H](NC(=O)[C@@H](NC(=O)[C@@H](N)CCCCN)[C@@H](O)CN)C(=O)NCC(=O)N[C@H](CCCN)C(=O)N1CCC[C@H]1C(=O)N[C@@H](Cc1cnc[nH]1)C(=O)N[C@@H](CCCCN)C(=O)N/C(=C\CCNC(=N)N)C(=O)O
-0.30

* * *

biological target: Bacterial 70S ribosome; assay: Inhibition of ribosome-mediated translation in Cell-free Escherichia coli protein synthesis system using pCmGFP as plasmid incubated at 30 degreeC measured every 20 mins by invitro coupled transcription-translation system based fluorescence analysis
Starred links: 1 amine or outer side, 2 acyl side, 3 side chain; linkers in the order of their positions; H or OH if unused. Non-standard residues stand in square brackets, D forms with d. Residues, ends and D or L forms follow the SMILES beside them. Dab(3S-OH) = NC[C@H](O)[C@H](N)C(=O)O; X1 = O=C([C@@H](CCCO)N[*:1])[*:2]; ΔZArg = N=C(N)NCC/C=C(\N)C(=O)O
Listing of entries alongside the reported IC50.

Return IC50 measured with Bacterial 70S ribosome given this molecule: C[C@H](NC(=O)[C@@H](NC(=O)[C@@H](N)CCCCN)[C@@H](O)CN)C(=O)NCC(=O)N[C@H](CCCO)C(=O)N1CCC[C@H]1C(=O)N[C@@H](Cc1c[nH]cn1)C(=O)N[C@@H](CCCCN)C(=O)N/C(=C\CCNC(=N)N)C(=O)O (H-K[Dab(3S-OH)]AG[X1]PHK[ΔZArg]-OH)
1.3 µM

Repeat for the following molecule: C[C@H](NC(=O)[C@@H](NC(=O)[C@@H](N)CCCCN)[C@@H](C)CN)C(=O)NCC(=O)N[C@H](CCCN)C(=O)N1CCC[C@H]1C(=O)N[C@@H](Cc1c[nH]cn1)C(=O)N[C@@H](CCCCN)C(=O)N/C(=C\CCNC(=N)N)C(=O)O
26.7 µM

Another molecule: CO[C@@H](CN)[C@H](NC(=O)[C@@H](N)CCCCN)C(=O)N[C@@H](C)C(=O)NCC(=O)N[C@H](CCCN)C(=O)N1CCC[C@H]1C(=O)N[C@@H](Cc1c[nH]cn1)C(=O)N[C@@H](CCCCN)C(=O)N/C(=C\CCNC(=N)N)C(=O)O
> 40 µM

Then this molecule: C[C@H](NC(=O)[C@@H](NC(=O)[C@@H](N)CCCCN)[C@@H](O)C(C)(C)N)C(=O)NCC(=O)N[C@H](CCCN)C(=O)N1CCC[C@H]1C(=O)N[C@@H](Cc1c[nH]cn1)C(=O)N[C@@H](CCCCN)C(=O)N/C(=C\CCNC(=N)N)C(=O)O
> 40 µM

* * *

target: Bacterial 70S ribosome; assay: Inhibition of ribosome-mediated translation in Cell-free Escherichia coli protein synthesis system using pCmGFP as plasmid incubated at 30 degreeC measured every 20 mins by invitro coupled transcription-translation system based fluorescence analysis
RESULT TYPE: IC50

C[C@H](NC(=O)[C@@H](NC(=O)[C@@H](N)CCCCN)[C@@H](O)CN)C(=O)NCC(=O)N[C@H](CC[C@@H](C)N)C(=O)N1CCC[C@H]1C(=O)N[C@@H](Cc1c[nH]cn1)C(=O)N[C@@H](CCCCN)C(=O)N/C(=C\CCNC(=N)N)C(=O)O | > 40 µM
C[C@H](NC(=O)[C@@H](NC(=O)[C@@H](N)CCCCN)[C@@H](O)[C@H](C)N)C(=O)NCC(=O)N[C@H](CCCN)C(=O)N1CCC[C@H]1C(=O)N[C@@H](Cc1c[nH]cn1)C(=O)N[C@@H](CCCCN)C(=O)N/C(=C\CCNC(=N)N)C(=O)O | > 40 µM

# ---- query molecule ----
I'd like to know its IC50. The molecule in question is CNCCC[C@@H](NC(=O)CNC(=O)[C@H](C)NC(=O)[C@@H](NC(=O)[C@@H](N)CCCCN)[C@@H](O)CN)C(=O)N1CCC[C@H]1C(=O)N[C@@H](Cc1c[nH]cn1)C(=O)N[C@@H](CCCCN)C(=O)N/C(=C\CCNC(=N)N)C(=O)O
> 40 µM

* * *

molecular target: Bacterial 70S ribosome; experiment: Inhibition of ribosome-mediated translation in Cell-free Escherichia coli protein synthesis system using pCmGFP as plasmid incubated at 30 degreeC measured every 20 mins by invitro coupled transcription-translation system based fluorescence analysis
RESULT TYPE: IC50

C[C@H](NC(=O)[C@@H](NC(=O)[C@@H](N)CCCCN)[C@H](O)CN)C(=O)NCC(=O)N[C@H](CCCN)C(=O)N1CCC[C@H]1C(=O)N[C@@H](Cc1c[nH]cn1)C(=O)N[C@@H](CCCCN)C(=O)N/C(=C\CCNC(=N)N)C(=O)O | > 40 µM
C[C@H](NC(=O)[C@@H](NC(=O)[C@@H](N)CCCCN)[C@H](C)O)C(=O)NCC(=O)N[C@H](CCCN)C(=O)N1CCC[C@H]1C(=O)N[C@@H](Cc1c[nH]cn1)C(=O)N[C@@H](CCCCN)C(=O)N/C(=C\CCNC(=N)N)C(=O)O | > 40 µM
C[C@H](N)CC[C@@H](NC(=O)CNC(=O)[C@H](C)NC(=O)[C@@H](NC(=O)[C@@H](N)CCCCN)[C@@H](O)CN)C(=O)N1CCC[C@H]1C(=O)N[C@@H](Cc1c[nH]cn1)C(=O)N[C@@H](CCCCN)C(=O)N/C(=C\CCNC(=N)N)C(=O)O | 17.9 µM

// switching to the query molecule
Lookup: IC50 / Bacterial 70S ribosome / C[C@H](NC(=O)[C@@H](NC(=O)[C@@H](N)CCCCN)[C@@H](O)CN)C(=O)NCC(=O)N[C@H](CCCCN)C(=O)N1CCC[C@H]1C(=O)N[C@@H](Cc1c[nH]cn1)C(=O)N[C@@H](CCCCN)C(=O)N/C(=C\CCNC(=N)N)C(=O)O
> 40 µM
